- Protocol Notes: gradient 5% acetonitrile 3 min, to 50% in 2 min, to 85% in 15 min, held 3 min, 100 µL/min
- Details: column: Zorbax Extend-C18 2.1 x 50 mm; eluents: water / acetonitrile, 0.1% formic acid
Checkbox rule: RP-LC retention time lower than 700 s = satisfied; RP-LC retention time not lower than 700 s = not satisfied.

// known answers, use as guide
> print(dat)
                                   molecule       category
1  Cc1c(C(=O)NC2CCCC2)cnn1-c1ccc(-c2nc(C(C)C)no2)cn1  not satisfied
2          O=C1CN(C(=O)c2ccccc2F)c2ccccc2N1      satisfied
3  COc1ccc(-c2noc(CN3C(=O)COc4ccccc43)n2)cc1OC  not satisfied

Exercise: Please let me know if `CCN1C=C(C(=O)OCc2c(C)noc2C)C(C)=NS1(=O)=O` shows RP-LC retention time below 700 s.
Key: not satisfied

Exercise: Please let me know if `CS(=O)(=O)Nc1ccc2nc(S(C)(=O)=O)sc2c1` shows RP-LC retention time below 700 s.
Key: satisfied

Value source: the METLIN SMRT retention time set (Domingo-Almenara et al. 2019)
